Hello, the source for this data is PubChem BioAssay AID2060346, in case you need it.

test system: CN0375-F725-PDC multi-cell spheroids, viability; assay: Anticancer human tumor CN0375-F725-PDC patient-derived colon carcinoma cell line growth inhibition [TAK]; conditions: second compound 30 µM; first compound 0.00316 µM; active compounds read low
property.measured: viability, T/C (%)
Unit % implied. Number only.

Exercise: Look up and report measured viability, T/C for this entry: CC(C)n1nc(-c2ccc3oc(N)nc3c2)c2c(N)ncnc21 + CC(C)NCC(C(=O)N1CCN(c2ncnc3c2C(C)CC3O)CC1)c1ccc(Cl)cc1
Solution: 75.6

====

tested on: CN0375-F725-PDC multi-cell spheroids, viability; test: Anticancer human tumor CN0375-F725-PDC cell line growth inhibition [TAK]; details: second compound 0.3 µM; first compound 0.01 µM; active compounds read low;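 note: spheroids exposed to drugs for seven days; 100% = DMSO vehicle control wells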
We label by threshold. Values of viability, T/C strictly beneath 80% are satisfied. Values of 80% and up are not satisfied.

See these solved cases before continuing.
COC1CC2CCC(C)C(O)(O2)C(=O)C(=O)N2CCCCC2C(=O)OC(C(C)CC2CCC(OCCO)C(OC)C2)CC(=O)C(C)C=C(C)C(O)C(OC)C(=O)C(C)CC(C)C=CC=CC=C1C (stereo not given) + CC(C)NCC(C(=O)N1CCN(c2ncnc3c2C(C)CC3O)CC1)c1ccc(Cl)cc1 = not satisfied
CC(C)CC(NC(=O)CNC(=O)c1cc(Cl)ccc1Cl)B1OC(=O)CC(CC(=O)O)(C(=O)O)O1 (stereo not given) + CC(C)NCC(C(=O)N1CCN(c2ncnc3c2C(C)CC3O)CC1)c1ccc(Cl)cc1 = not satisfied
COc1c(OCCCN2CCOCC2)ccc2c3n(c(=NC(=O)c4cnc(N)nc4)nc12)CCN3 + CC(C)NCC(C(=O)N1CCN(c2ncnc3c2C(C)CC3O)CC1)c1ccc(Cl)cc1 = not satisfied

Continue with the compound presented below.
Exercise: Does this compound meet the criterion viability, T/C < 80%? CC(C)CC(NC(=O)C(Cc1ccccc1)NC(=O)c1cnccn1)B(O)O (stereo not given) + CC(C)NCC(C(=O)N1CCN(c2ncnc3c2C(C)CC3O)CC1)c1ccc(Cl)cc1
Solution: satisfied
